Ref: patent US11358947B2

Measured pIC50, listed per entry.
- Target: TMEM16B (Homo sapiens, UniProt Q9NQ90)
- Sequence (Q9NQ90 1-998): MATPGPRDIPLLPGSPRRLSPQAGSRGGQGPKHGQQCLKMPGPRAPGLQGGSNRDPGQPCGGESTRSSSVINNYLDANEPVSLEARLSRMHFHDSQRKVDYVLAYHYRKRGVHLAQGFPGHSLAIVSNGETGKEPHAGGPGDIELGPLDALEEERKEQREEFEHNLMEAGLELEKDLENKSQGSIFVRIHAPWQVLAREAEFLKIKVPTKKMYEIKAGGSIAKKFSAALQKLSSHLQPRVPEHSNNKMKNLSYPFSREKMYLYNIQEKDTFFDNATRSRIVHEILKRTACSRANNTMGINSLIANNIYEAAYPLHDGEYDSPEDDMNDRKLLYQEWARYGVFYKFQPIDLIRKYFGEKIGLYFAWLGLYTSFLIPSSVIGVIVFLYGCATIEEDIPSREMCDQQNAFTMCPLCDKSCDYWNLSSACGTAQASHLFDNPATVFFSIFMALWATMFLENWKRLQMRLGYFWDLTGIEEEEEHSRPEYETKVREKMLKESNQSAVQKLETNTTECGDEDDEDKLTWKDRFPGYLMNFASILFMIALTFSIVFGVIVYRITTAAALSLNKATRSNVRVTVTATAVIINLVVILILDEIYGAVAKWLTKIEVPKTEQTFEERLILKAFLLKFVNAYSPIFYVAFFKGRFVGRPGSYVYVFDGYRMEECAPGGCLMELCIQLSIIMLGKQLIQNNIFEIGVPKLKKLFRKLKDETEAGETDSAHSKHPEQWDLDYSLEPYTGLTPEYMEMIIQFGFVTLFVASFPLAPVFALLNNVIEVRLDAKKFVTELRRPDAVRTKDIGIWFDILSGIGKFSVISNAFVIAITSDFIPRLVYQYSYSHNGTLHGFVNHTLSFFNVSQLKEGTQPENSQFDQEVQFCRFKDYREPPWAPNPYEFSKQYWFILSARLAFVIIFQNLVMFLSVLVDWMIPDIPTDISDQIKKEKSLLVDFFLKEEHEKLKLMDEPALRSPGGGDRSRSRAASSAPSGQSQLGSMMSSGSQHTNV
- Test Method Notes: TMEM16B fluorescence plate reader assay in FRT cells
pIC50: −log10 of the molar value.

{"columns": ["Item Smiles", "Target", "pIC50"],
 "data": [
  ["Cc1ccccc1NC(=O)c1c(NC(=O)C(F)(F)F)sc2c1CCCCC2", "TMEM16B (Homo sapiens, UniProt Q9NQ90)", 5.85],
  ["Cc1ccccc1NC(=O)c1c(NC(=O)C(F)(F)I)sc2c1CCCCC2", "TMEM16B (Homo sapiens, UniProt Q9NQ90)", 5.85],
  ["Cc1ccccc1NC(=O)c1c(NC(=O)C(F)(F)Cl)sc2c1CCCCC2", "TMEM16B (Homo sapiens, UniProt Q9NQ90)", 6.40]
]}

---

- System: non-TMEM16A Ca2+-activated Cl- channel in HT-29 cells
- Test Method Notes: Non-TMEM16A CaCC plate reader assay in HT-29 cells expressing YFP
- Assay type: cell-based
- Assay Context: Homo sapiens, non-TMEM16 anion conductance, fluorescence plate reader assay

{"columns": ["Item Smiles", "Display Unit", "IC50"],
 "data": [
  ["Cc1ccccc1NC(=O)c1c(NC(=O)C(F)(F)F)sc2c1CCCCC2", "µM", 4]
]}
